Where do these numbers come from? They come from the kinase profiling compilation of Christmann-Franck et al. (2016).

Each entry below carries its recorded residual activity.
- System Tested: MAPK1 (human) (UniProt P28482)
- Sequence (P28482 whole entry, looked up): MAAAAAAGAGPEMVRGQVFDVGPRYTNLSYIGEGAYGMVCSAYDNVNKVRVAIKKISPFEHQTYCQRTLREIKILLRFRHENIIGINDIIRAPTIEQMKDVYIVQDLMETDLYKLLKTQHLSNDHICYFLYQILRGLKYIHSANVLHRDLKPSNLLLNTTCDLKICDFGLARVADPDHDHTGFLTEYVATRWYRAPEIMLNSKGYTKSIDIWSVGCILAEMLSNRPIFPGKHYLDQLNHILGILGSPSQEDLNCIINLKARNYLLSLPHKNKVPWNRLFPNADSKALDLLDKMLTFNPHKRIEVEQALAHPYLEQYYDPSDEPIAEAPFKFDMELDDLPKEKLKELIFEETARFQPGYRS
- Experimental Protocol: radiometric filter-binding kinase assay, Kinase HotSpot
- Condition Summary: compound 0.5 µM; ATP 10 µM
Reported Property: residual activity (%)

- O=c1c2ccccc2[nH]c(=S)n1CCN1CCC(=C(c2ccc(F)cc2)c2ccc(F)cc2)CC1: 102
- CCCCc1c(-c2ccc(O)cc2)[nH]c2nccnc12: 106
- CCOc1cc2ncnc(Nc3cccc(Br)c3)c2cc1OCC: 104
- COc1cc2c(cc1OC)-c1[nH]nc(Nc3cccc(F)c3)c1C2: 85.1
- O=c1[nH]c2ccccc2n1C1CCN(Cc2ccc(-c3nc4cc5[nH]cnc5cc4nc3-c3ccccc3)cc2)CC1: 112
- N/C(=N\N=C/c1ccc(-c2cccc([N+](=O)[O-])c2)o1)N[N+](=O)[O-]: 99.7

====

Each entry below carries its recorded residual activity.
- System Tested: CAMK2A (human)
- Experimental Protocol: radiometric filter-binding kinase assay, Kinase HotSpot
- Condition Summary: compound 0.5 µM; ATP 10 µM
Reported Property: residual activity

• N#Cc1c(NC(=O)c2cccc3ccccc23)sc2c1CCCC2 = 104%
• CCOc1cc2ncnc(Nc3cccc(Br)c3)c2cc1OCC = 103%
• N#C/C(=C1/Nc2ccccc2S1)c1ccnc(NCCc2cccnc2)n1 = 105%
• CCCCc1c(-c2ccc(O)cc2)[nH]c2nccnc12 = 97.8%
• Cn1cc(/C=C2\C(=O)Nc3ccc(S(N)(=O)=O)cc32)c2ccccc21 = 57.6%
• O=C1NC(=O)c2c1c1c3ccccc3[nH]c1c1[nH]c3cc(Br)ccc3c21 = 78.3%
• O=C(c1ccccc1)c1ccc(N2CCOCC2)cc1O = 105%
• N/C(=N\N=C/c1ccc(-c2cccc([N+](=O)[O-])c2)o1)N[N+](=O)[O-] = 100%
• CCc1nc(-c2ccc(OC)cc2)[nH]c1-c1ccncc1 = 105%
• O=S(=O)(NCCNC/C=C/c1ccc(Br)cc1)c1cccc2cnccc12 = 102%
• COc1cc2c(cc1OC)-c1[nH]nc(Nc3cccc(F)c3)c1C2 = 95.6%
• O=c1c(-c2ccc(F)cc2)c(-c2ccncc2)[nH]n1-c1ccc(Cl)cc1 = 86.9%
• Nc1ncnc2c1cnn2-c1ccccc1 = 105%
• O=C(O)c1ccc2c3c1cccc3c(=O)n1c3ccccc3nc21 = 85.2%
• O=c1[nH]c2ccccc2n1C1CCN(Cc2ccc(-c3nc4cc5[nH]cnc5cc4nc3-c3ccccc3)cc2)CC1 = 109%

====

- System Tested: CSK (human) (UniProt P41240)
- Sequence (P41240 whole entry, looked up): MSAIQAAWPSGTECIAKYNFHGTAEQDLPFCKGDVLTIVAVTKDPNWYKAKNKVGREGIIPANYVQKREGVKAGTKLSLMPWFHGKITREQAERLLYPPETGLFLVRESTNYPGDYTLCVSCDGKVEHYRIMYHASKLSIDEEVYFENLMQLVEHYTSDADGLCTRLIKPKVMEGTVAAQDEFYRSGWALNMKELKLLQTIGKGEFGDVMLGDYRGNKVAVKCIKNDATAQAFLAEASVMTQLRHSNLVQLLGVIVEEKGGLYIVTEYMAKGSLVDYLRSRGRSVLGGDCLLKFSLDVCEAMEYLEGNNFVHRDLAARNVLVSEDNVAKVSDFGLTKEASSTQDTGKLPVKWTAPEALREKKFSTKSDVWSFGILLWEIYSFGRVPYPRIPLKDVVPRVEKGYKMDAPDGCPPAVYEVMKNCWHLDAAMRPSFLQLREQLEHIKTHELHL
- Experimental Protocol: radiometric filter-binding kinase assay, Kinase HotSpot
- Condition Summary: compound 0.5 µM; ATP 10 µM
Each entry below carries its recorded residual activity.
Reported Property: residual activity (%)

• N#Cc1c(NC(=O)c2cccc3ccccc23)sc2c1CCCC2 = 91.5
• O=c1cc(N2CCOCC2)oc2c(-c3ccccc3)cccc12 = 88.1
• O=C1NC(=O)c2cc(Nc3ccc(F)cc3)c(Nc3ccc(F)cc3)cc21 = 92
• c1ccc(-c2cnc(Nc3ccc(OCCN4CCCC4)cc3)s2)cc1 = 89.9

====

Each entry below carries its recorded residual activity.
- System Tested: PAK4 (human) (UniProt O96013)
- Sequence (O96013 whole entry, looked up): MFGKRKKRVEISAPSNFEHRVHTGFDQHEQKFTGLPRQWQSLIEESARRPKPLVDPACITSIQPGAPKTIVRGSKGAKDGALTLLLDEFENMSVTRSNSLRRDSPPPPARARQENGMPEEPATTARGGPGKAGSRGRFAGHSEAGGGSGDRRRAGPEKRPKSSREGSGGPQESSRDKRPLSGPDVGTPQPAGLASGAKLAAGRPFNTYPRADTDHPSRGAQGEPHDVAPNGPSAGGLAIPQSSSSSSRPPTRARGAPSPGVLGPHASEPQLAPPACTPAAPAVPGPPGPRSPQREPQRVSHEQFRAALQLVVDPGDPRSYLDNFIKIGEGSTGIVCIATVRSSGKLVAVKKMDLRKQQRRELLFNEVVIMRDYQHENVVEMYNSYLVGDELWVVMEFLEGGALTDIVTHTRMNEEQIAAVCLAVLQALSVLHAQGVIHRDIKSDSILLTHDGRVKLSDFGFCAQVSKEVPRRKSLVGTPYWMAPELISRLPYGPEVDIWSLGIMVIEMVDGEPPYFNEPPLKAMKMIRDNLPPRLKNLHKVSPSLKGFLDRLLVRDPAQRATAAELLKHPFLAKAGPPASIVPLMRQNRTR
- Experimental Protocol: radiometric filter-binding kinase assay, Kinase HotSpot
- Condition Summary: compound 0.5 µM; ATP 10 µM
Reported Property: residual activity (%)

* Nc1ncnc2c1cnn2-c1ccccc1 | 86.5
* COc1cc2ncnc(Nc3ccc(O)c(Br)c3)c2cc1OC | 95.7
* N#C/C(=C1/Nc2ccccc2S1)c1ccnc(NCCc2cccnc2)n1 | 91.3
* CCOc1cc2ncnc(Nc3cccc(Br)c3)c2cc1OCC | 115
* O=S(=O)(NCCNC/C=C/c1ccc(Br)cc1)c1cccc2cnccc12 | 98.9
* O=c1c(-c2ccc(F)cc2)c(-c2ccncc2)[nH]n1-c1ccc(Cl)cc1 | 82
* FC(F)(F)c1ccc(/C=C/c2nc(COc3ccc(CCCCn4ccnn4)cc3)co2)cc1 | 107
* O=c1c2ccccc2[nH]c(=S)n1CCN1CCC(=C(c2ccc(F)cc2)c2ccc(F)cc2)CC1 | 101
* O=C(O)c1ccc2c3c1cccc3c(=O)n1c3ccccc3nc21 | 114
* Cc1cc(Nc2nc(-c3ccccc3)nc3ccccc23)n[nH]1 | 84.2
* N#Cc1c(NC(=O)c2cccc3ccccc23)sc2c1CCCC2 | 95.2
* CCc1nc(-c2ccc(OC)cc2)[nH]c1-c1ccncc1 | 118
* COc1cc2c(N3CCN(C(=O)Nc4ccc(OC(C)C)cc4)CC3)ncnc2cc1OCCCN1CCCCC1 | 103
* O=C1NC(=O)c2cc(Nc3ccc(F)cc3)c(Nc3ccc(F)cc3)cc21 | 95.1
* c1ccc(-c2cnc(Nc3ccc(OCCN4CCCC4)cc3)s2)cc1 | 106
* N#CCCc1ccc2c(c1)-c1[nH]c3ccc([N+](=O)[O-])cc3c1CC(=O)N2 | 86.4
* O=C1NC(=O)c2c1c1c3ccccc3[nH]c1c1[nH]c3cc(Br)ccc3c21 | 96.4
* N/C(=N\N=C/c1ccc(-c2cccc([N+](=O)[O-])c2)o1)N[N+](=O)[O-] | 95.3

====

Each entry below carries its recorded residual activity.
- System Tested: FLT1 (human) (UniProt P17948)
- Sequence (P17948 whole entry, looked up): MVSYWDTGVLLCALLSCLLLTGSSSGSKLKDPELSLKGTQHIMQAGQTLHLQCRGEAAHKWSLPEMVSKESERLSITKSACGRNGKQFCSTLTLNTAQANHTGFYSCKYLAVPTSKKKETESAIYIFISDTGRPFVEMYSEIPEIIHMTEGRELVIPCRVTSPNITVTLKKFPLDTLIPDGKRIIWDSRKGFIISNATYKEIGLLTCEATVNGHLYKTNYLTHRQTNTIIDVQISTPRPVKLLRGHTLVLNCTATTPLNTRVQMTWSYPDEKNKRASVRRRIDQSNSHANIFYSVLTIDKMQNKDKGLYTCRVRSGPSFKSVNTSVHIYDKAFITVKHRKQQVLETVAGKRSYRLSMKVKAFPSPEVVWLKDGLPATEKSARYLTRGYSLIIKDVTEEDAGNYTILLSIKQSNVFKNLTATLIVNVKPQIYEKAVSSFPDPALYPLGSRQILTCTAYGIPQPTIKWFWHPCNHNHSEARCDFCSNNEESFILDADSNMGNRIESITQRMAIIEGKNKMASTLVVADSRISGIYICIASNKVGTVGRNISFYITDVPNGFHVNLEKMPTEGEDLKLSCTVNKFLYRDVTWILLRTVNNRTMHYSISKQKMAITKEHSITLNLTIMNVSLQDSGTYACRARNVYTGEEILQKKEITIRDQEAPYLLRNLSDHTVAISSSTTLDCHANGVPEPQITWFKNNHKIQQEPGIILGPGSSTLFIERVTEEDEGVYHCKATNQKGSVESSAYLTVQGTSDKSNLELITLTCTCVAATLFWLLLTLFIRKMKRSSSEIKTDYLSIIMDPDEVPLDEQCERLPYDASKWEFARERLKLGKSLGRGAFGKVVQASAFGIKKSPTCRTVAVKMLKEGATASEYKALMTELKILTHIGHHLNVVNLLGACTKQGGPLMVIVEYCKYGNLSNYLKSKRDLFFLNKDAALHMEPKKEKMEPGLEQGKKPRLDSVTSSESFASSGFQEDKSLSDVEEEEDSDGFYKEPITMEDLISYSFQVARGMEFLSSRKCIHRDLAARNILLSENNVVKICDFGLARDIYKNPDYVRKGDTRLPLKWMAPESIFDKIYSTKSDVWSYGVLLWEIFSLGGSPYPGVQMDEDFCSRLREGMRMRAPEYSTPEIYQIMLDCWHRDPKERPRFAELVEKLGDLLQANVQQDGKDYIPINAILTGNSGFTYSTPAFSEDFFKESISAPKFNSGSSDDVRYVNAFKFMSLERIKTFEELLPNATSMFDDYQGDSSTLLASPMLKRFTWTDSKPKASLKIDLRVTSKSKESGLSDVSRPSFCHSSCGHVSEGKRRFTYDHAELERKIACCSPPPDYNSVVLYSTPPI
- Experimental Protocol: radiometric filter-binding kinase assay, Kinase HotSpot
- Condition Summary: compound 0.5 µM; ATP 10 µM
Reported Property: residual activity (%)

- Nc1ncnc2c1cnn2-c1ccccc1: 88.5
- O=S(=O)(NCCNC/C=C/c1ccc(Br)cc1)c1cccc2cnccc12: 90.8
- O=c1[nH]c2ccccc2n1C1CCN(Cc2ccc(-c3nc4cc5[nH]cnc5cc4nc3-c3ccccc3)cc2)CC1: 92.2

====

- System Tested: STK33 (human) (UniProt Q9BYT3)
- Sequence (Q9BYT3 whole entry, looked up): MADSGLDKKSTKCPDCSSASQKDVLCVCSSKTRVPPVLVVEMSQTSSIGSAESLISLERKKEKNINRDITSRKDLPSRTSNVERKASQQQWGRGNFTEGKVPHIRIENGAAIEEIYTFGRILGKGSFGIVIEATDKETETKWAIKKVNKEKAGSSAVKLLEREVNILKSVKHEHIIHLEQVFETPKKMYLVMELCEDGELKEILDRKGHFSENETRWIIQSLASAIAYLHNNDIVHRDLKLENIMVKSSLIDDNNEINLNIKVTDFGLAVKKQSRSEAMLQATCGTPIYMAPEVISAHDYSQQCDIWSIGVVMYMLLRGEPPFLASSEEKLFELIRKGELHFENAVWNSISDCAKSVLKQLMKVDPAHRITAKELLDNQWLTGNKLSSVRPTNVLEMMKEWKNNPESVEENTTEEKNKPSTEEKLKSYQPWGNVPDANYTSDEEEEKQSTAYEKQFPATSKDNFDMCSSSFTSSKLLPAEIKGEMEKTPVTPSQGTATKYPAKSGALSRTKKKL
- Experimental Protocol: radiometric filter-binding kinase assay, Kinase HotSpot
- Condition Summary: compound 0.5 µM; ATP 10 µM
Each entry below carries its recorded residual activity.
Reported Property: residual activity (%)

• COc1cc2ncnc(Nc3ccc(O)c(Br)c3)c2cc1OC = 80.7
• O=C(O)c1ccc2c3c1cccc3c(=O)n1c3ccccc3nc21 = 78.8
• O=S(=O)(NCCNC/C=C/c1ccc(Br)cc1)c1cccc2cnccc12 = 79.5

====

Each entry below carries its recorded residual activity.
- System Tested: FRK (human) (UniProt P42685)
- Sequence (P42685 whole entry, looked up): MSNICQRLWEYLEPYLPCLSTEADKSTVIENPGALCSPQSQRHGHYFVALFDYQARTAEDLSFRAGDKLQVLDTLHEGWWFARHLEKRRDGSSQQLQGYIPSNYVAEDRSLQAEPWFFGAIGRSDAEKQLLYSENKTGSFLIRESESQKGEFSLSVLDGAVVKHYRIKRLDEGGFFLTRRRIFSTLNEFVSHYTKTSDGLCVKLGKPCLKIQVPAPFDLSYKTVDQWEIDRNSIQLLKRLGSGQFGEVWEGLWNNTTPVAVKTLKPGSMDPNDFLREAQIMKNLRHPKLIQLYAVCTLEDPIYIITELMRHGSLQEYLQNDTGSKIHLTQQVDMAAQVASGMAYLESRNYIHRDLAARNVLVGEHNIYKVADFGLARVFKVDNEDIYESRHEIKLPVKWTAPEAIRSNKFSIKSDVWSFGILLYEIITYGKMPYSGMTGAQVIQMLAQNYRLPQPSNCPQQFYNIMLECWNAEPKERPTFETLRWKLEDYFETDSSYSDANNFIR
- Experimental Protocol: radiometric filter-binding kinase assay, Kinase HotSpot
- Condition Summary: compound 0.5 µM; ATP 10 µM
Reported Property: residual activity (%)

• N#C/C(=C1/Nc2ccccc2S1)c1ccnc(NCCc2cccnc2)n1 = 97.5
• O=c1c2ccccc2[nH]c(=S)n1CCN1CCC(=C(c2ccc(F)cc2)c2ccc(F)cc2)CC1 = 100
• O=C1NC(=O)c2c1c1c3ccccc3[nH]c1c1[nH]c3cc(Br)ccc3c21 = 93.9
• CCOc1cc2ncnc(Nc3cccc(Br)c3)c2cc1OCC = 85.9
• COc1cc2c(N3CCN(C(=O)Nc4ccc(OC(C)C)cc4)CC3)ncnc2cc1OCCCN1CCCCC1 = 101
• CCCCc1c(-c2ccc(O)cc2)[nH]c2nccnc12 = 87.6
• O=c1c(-c2ccc(F)cc2)c(-c2ccncc2)[nH]n1-c1ccc(Cl)cc1 = 78.5
• N#Cc1c(NC(=O)c2cccc3ccccc23)sc2c1CCCC2 = 104
• Cn1cc(/C=C2\C(=O)Nc3ccc(S(N)(=O)=O)cc32)c2ccccc21 = 97.1
• N/C(=N\N=C/c1ccc(-c2cccc([N+](=O)[O-])c2)o1)N[N+](=O)[O-] = 90.1
• COc1cc2ncnc(Nc3ccc(O)c(Br)c3)c2cc1OC = 74.7
• CCc1nc(-c2ccc(OC)cc2)[nH]c1-c1ccncc1 = 101
• COc1cccc(-c2cc(=O)c3ccccc3o2)c1N = 89.5
• O=c1[nH]c2ccccc2n1C1CCN(Cc2ccc(-c3nc4cc5[nH]cnc5cc4nc3-c3ccccc3)cc2)CC1 = 102
• COc1cc2c(Nc3ccc(Br)cc3F)ncnc2cc1OCC1CCN(C)CC1 = 79.5
• Cc1cc(Nc2nc(-c3ccccc3)nc3ccccc23)n[nH]1 = 72.5
• CN[C@@H]1C[C@H]2O[C@@](C)([C@@H]1OC)n1c3ccccc3c3c4c(c5c6ccccc6n2c5c31)C(=O)NC4 = 5.5
• COc1cc2c(cc1OC)-c1[nH]nc(Nc3cccc(F)c3)c1C2 = 67.9
• O=C(O)c1ccc2c3c1cccc3c(=O)n1c3ccccc3nc21 = 97.6
• FC(F)(F)c1ccc(/C=C/c2nc(COc3ccc(CCCCn4ccnn4)cc3)co2)cc1 = 99
• Nc1ncnc2c1cnn2-c1ccccc1 = 101
• c1ccc(-c2cnc(Nc3ccc(OCCN4CCCC4)cc3)s2)cc1 = 83
• O=c1cc(N2CCOCC2)oc2c(-c3ccccc3)cccc12 = 101
• O=C(c1ccccc1)c1ccc(N2CCOCC2)cc1O = 102
• N#CCCc1ccc2c(c1)-c1[nH]c3ccc([N+](=O)[O-])cc3c1CC(=O)N2 = 92.7
